Each record here notes measured Ki.
Target: MT-1 receptor (Homo sapiens, UniProt P48039)
Construct: expressed in transfected cells; host or cells: CHP-K1 (Chinese hamster ovary) cells (so in the source)
Sequence (P48039 whole entry): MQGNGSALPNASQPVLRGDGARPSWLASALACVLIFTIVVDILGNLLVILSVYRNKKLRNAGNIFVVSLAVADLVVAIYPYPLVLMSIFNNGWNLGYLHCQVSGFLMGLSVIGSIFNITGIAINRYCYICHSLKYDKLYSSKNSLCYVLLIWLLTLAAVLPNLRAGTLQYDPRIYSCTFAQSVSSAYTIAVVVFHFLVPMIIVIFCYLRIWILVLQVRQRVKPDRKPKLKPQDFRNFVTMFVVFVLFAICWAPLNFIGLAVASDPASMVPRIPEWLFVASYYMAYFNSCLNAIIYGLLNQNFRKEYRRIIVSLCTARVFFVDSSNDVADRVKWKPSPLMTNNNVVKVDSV
Assay: 125I-melatonin binding in membranes of CHP-K1 cells, MT-1
Settings: 0.05 nM 125I-melatonin, 25° C., 3 hours; read-out: MT-1 receptor binding KI
MEASURED_PROPERTY: Ki (µM)

[[record]]
structure_as_smiles = "COc1ccc2[nH]cc(CCNC(=O)c3cc(=O)cc(C(=O)O)o3)c2c1"
value_units = "µM"
meas_value = 1.28

[[record]]
structure_as_smiles = "COc1ccc2[nH]c(Br)c(CCNC(=O)c3ccc(=O)oc3)c2c1"
value_units = "µM"
meas_value = 1.25

[[record]]
structure_as_smiles = "COc1ccc2[nH]cc(CCNC(=O)c3cc(=O)c(OC)co3)c2c1"
value_units = "µM"
meas_value = 1.11

